Task for the reader: assign each of the following compounds its reported IC50 cell viability.
- Tested on: HCT116
- setup_conditions: 72 h; ICRF193 200 nM
Counter-ions that a name gives are not always drawn.

// known answers, use as guide
CCCCC[C@H](O)C=C[C@@H]1[C@@H](C/C=C/CCCC(=O)O)[C@H](O)C[C@H]1O [5-trans Prostaglandin F2?]    > 45.8 µM
CS(=O)(=O)c1ccc(C2=C(c3ccccc3)C(=O)OC2)cc1 [Rofecoxib]    > 45.8 µM
C1N2CN3CN1CN(C2)C3 [Methenamine]    > 45.8 µM
COc1ccc2c(O[C@@H]3C[C@H]4C(=O)N[C@]5(C(=O)NS(=O)(=O)C6CC6)C[C@H]5/C=C\CCCCN(C)C(=O)[C@@H]4C3)cc(-c3nc(C(C)C)cs3)nc2c1C [Simeprevir]    > 45.8 µM
Cn1c(=O)c2c(ncn2CC(O)CO)n(C)c1=O (centres undefined) [Dyphylline]    > 45.8 µM
CO[C@H]1O[C@@H]2O[C@@]3(C)CC[C@H]4[C@H](C)CC[C@@H]([C@H]1C)[C@@]24OO3 [Artemether]    > 45.8 µM
O=C(O)CCCCC1CCSS1 (stereo not drawn) [alpha-Lipoic acid]    > 45.8 µM
CCC(c1ccccc1)c1noc(CCN(CC)CC)n1 (centres undefined) [Proxazole citrate]    > 45.8 µM
CCOc1ccc(/N=C(\C)Nc2ccc(OCC)cc2)cc1 [Phenacaine hydrochloride]    > 45.8 µM
CC1CC(=O)NN=C1c1ccc(NCC(C)(C)NCC(O)COc2cc(Cl)ccc2C#N)cc1 (centres undefined) [Oberadilol]    > 45.8 µM

Hi there! I need IC50 cell viability for each item below, if you can.
1. CN1C[C@H](C(=O)N[C@]2(C)O[C@@]3(O)[C@@H]4CCCN4C(=O)[C@H](Cc4ccccc4)N3C2=O)C[C@@H]2c3cccc4[nH]cc(c34)C[C@H]21 [Dihydroergotamine]
2. O=C(O)/C=C(\CC(=O)O)C(=O)O [trans-Aconitic acid]
3. COCCCC/C(=N\OCCN)c1ccc(C(F)(F)F)cc1 [Fluvoxamine]
4. OC(CCCN1CCCCC1)(c1ccccc1)c1ccccc1 [Diphenidol]
5. Clc1ccc(Cn2c(CN3CCCC3)nc3ccccc32)cc1 [Clemizole hydrochloride]
6. Cc1ccc(C(C)C)c(O)c1 [Thymol]
7. O=C(O)Cc1sc(-c2ccccc2)nc1-c1ccc(Cl)cc1 [Fentiazac]

Reply:
1: > 45.8 µM; 2: > 45.8 µM; 3: > 45.8 µM; 4: > 45.8 µM; 5: > 45.8 µM; 6: > 45.8 µM; 7: > 45.8 µM

Provide reported IC50 cell viability for each item, in the same order as listed.
1. C[C@H]1C[C@@H]2[C@H]([C@@H](O)C[C@@]3(C)[C@H]2CC[C@]3(O)C(=O)COC(=O)CCC(=O)O)[C@@]2(C)C=CC(=O)C=C12
2. Cc1nnc2n1-c1sc(CCc3ccc(CC(C)C)cc3)cc1C(c1ccccc1Cl)=NC2C (centres undefined) [Israpafant]
3. CNC(C)C(O)c1ccccc1 (centres undefined) [RACEPHEDRINE HYDROCHLORIDE]
4. O=C(O)c1cccc(-c2noc(-c3ccccc3F)n2)c1 [PTC-124]
5. C#CC(O)(/C=C/Cl)CC (centres undefined) [Ethchlorvynol]
6. O=c1c(O)c(-c2ccc(O)c(O)c2)oc2cc(O)cc(O)c12 [Quercetin]
7. CC(=O)OCC1=C(C(=O)O)N2C(=O)[C@@H](NC(=O)CC#N)[C@H]2SC1 [Cefacetrile]
8. O=C1CC[C@H](C(=O)N2CCCCC2)N1 [Fasoracetam]

Reply:
["> 45.8 µM", "23.1 µM", "> 45.8 µM", "10.3 µM", "> 45.8 µM", "> 45.8 µM", "> 45.8 µM", "> 45.8 µM"]

Please state IC50 cell viability for every compound in the list that follows.
1. Cc1cc(N)c2ccccc2[n+]1CCCCCCCCCC[n+]1c(C)cc(N)c2ccccc21 [Dequalinium dichloride]
2. C=CCc1ccccc1OCC(O)CNC(C)C (centres undefined) [Alprenolol]
3. Brc1c(NC2=NCCN2)ccc2nccnc12 [Brimonidine]
4. CO[C@H](C(=O)[C@@H](O)[C@@H](C)O)[C@@H]1Cc2cc3cc(O[C@H]4C[C@@H](O[C@@H]5C[C@@H](O)[C@H](O)[C@@H](C)O5)[C@H](O)[C@@H](C)O4)c(C)c(O)c3c(O)c2C(=O)[C@H]1O[C@H]1C[C@@H](O[C@@H]2C[C@@H](O)[C@@H](O[C@@H]3C[C@](C)(O)[C@H](O)[C@@H](C)O3)[C@@H](C)O2)[C@H](O)[C@@H](C)O1 [Plicamycin]

Reply:
["2.98 µM", "> 45.8 µM", "> 45.8 µM", "0.058 µM"]
